Data provenance is the supplement of paper PMC9170038.

tested on: MS2 coat protein; test: apparent KD of MS2 coat protein; designed switch direction (-1 OFF switch, 1 ON switch): 1; higher = weaker reporter binding; settings: input ligand: FMN 200 uM
ENDPOINT_LABEL: apparent KD of MS2 coat protein (nM)
# value in nM; strip the unit string

Incoming: Specify apparent KD of MS2 coat protein for AUCCUAAACACAGGAUAUCCCAGUCAUGAUCUGGGAGAAGGGUGGCCACAUGAGGAUCACCCAUGUGAAGUGCCAGAGGCACGA [MOD3 Xexeraed] (Eterna round: R96, puzzle: Same State NG 1) and stop.
Outgoing: 397

Incoming: Specify apparent KD of MS2 coat protein for AGCGAAAGCAGUCACAUGAGGAUCACCCAUGUAUUAACUAUUGAGGAUAUGCAGCGACGGGUGUAGCAGAAGGCAGUGAGAAGG [Eternabot solution 30] (Eterna round: R96, puzzle: Same State NG 3) and stop.
Outgoing: 54.4

Incoming: Specify apparent KD of MS2 coat protein for AACGGCAGAUGAGGAUAUACUUGCCAUGCGAGCACGCUCGCUACAUGAGGAUCACCCAUGUAUGGGUAGAAGGCAUCAUGAUAC [Eternabot solution 39] (Eterna round: R96, puzzle: Same State NG 2) and stop.
Outgoing: 89.6

Incoming: Specify apparent KD of MS2 coat protein for CUGACAUGUCAAGGAUAUCACGUCGAUUAGACGUGAGAAGGUGAUCUACACAUGAGGAUCACCCAUGUGUUACGUGGGAGUCAG [Brourd's SSNG1/1-A2 mod 19] (Eterna round: R96, puzzle: Same State NG 1) and stop.
Outgoing: 54.9
